Biological target: hT2R16 (Homo sapiens (Human), UniProt Q9NYV7)
Sequence (Q9NYV7 whole entry): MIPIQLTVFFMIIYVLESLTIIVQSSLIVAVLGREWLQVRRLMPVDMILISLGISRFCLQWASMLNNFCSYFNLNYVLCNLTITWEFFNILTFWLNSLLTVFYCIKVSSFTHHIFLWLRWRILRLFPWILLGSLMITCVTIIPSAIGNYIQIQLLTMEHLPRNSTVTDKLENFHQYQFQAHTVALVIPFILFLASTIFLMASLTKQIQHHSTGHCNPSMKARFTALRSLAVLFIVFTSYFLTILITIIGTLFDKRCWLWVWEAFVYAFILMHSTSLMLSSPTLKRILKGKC
Experiment: hT2R panel inhibition, transient HEK293 G16g44, agonist Salicin 1 mM
Type: cell-based
Settings: HEK293, compound at 25 μM; receptor activated to EC80 with the corresponding agonist; read-out: screening result against bitter receptor 16
recorded-metric: inhibition at 25 µM

Completed entries (count: 5):
# compound, inhibition at 25 µM
data = [
    ("COc1cccc(CN(Cc2ccc(C(=O)O)cc2)S(=O)(=O)c2ccc(O)cc2)c1", "20 to 40%"),
    ("COc1ccc(CN(Cc2ccc(F)cc2)S(=O)(=O)c2ccc(C(=O)O)cc2)cc1", "> 80%"),
    ("O=C(O)C1CCC(CN(Cc2ccc(F)cc2)S(=O)(=O)c2cccs2)CC1 (stereo not drawn)", "20 to 40%"),
    ("COc1ccc(CN(C2CCCc3ccccc32)S(=O)(=O)c2ccc(C(=O)O)cc2)cc1 (stereo not drawn)", "20 to 40%"),
    ("O=C(O)c1ccc(S(=O)(=O)N(Cc2ccccc2)Cc2cccc(F)c2)cc1", "20 to 40%"),
]

Dear colleague, I am looking for the recorded inhibition at 25 µM of the following compound: O=C(O)c1ccc(CN(Cc2ccc(F)cc2)S(=O)(=O)c2ccccc2)cc1
40 to 60%

Then this compound: Cc1ccc(CN(Cc2ccccc2)S(=O)(=O)c2ccc(C(=O)O)cc2)cc1
40 to 60%

Follow-up item: COc1ccc(CN(Cc2ccoc2)S(=O)(=O)c2ccc(C(=O)O)cc2)cc1
20 to 40%

----------
Molecular target: hT2R64 (Homo sapiens (Human))
Sequence (P59538 whole entry): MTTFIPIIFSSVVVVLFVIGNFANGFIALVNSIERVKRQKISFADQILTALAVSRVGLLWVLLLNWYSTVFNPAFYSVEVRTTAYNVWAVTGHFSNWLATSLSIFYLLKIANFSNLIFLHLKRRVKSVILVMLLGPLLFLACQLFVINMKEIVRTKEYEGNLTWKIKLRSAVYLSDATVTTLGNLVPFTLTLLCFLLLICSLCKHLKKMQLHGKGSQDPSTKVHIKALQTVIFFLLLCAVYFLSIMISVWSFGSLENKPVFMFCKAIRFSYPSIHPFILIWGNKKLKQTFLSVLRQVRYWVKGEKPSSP
Assay: hT2R panel inhibition, transient HEK293 G16g44, agonist Aristolochic Acid 1 μM
Type: cell-based
Conditions: HEK293, compound at 25 μM; receptor activated to EC80 with the corresponding agonist; read-out: screening result against bitter receptor 64
recorded-metric: inhibition at 25 µM

Please review the following examples before continuing.
# compound, target-of-assay, recorded-metric, test-value
data = [
    ("COc1ccc(CN(Cc2ccc(F)c(F)c2)S(=O)(=O)c2ccc(C(=O)O)cc2)cc1", "hT2R64 (Homo sapiens (Human))", "inhibition at 25 µM", "> 80%"),
    ("COc1ccc(CN(Cc2ccccc2)S(=O)(=O)Cc2ccc(C(=O)O)cc2)cc1", "hT2R64 (Homo sapiens (Human))", "inhibition at 25 µM", "> 80%"),
    ("O=C(O)c1ccc(CN(Cc2ccccc2)S(=O)(=O)c2ccc(C(=O)O)cc2)cc1", "hT2R64 (Homo sapiens (Human))", "inhibition at 25 µM", "60 to 80%"),
]

Here is the next item to consider.
// returns reported inhibition at 25 µM for input Cc1ccccc1CN(Cc1ccccc1)S(=O)(=O)c1ccc(C(=O)O)cc1
60 to 80%

----------
// reported inhibition at 25 µM per item
Biological target: hT2R5 (Homo sapiens (Human))
Sequence (Q9NYW4 whole entry): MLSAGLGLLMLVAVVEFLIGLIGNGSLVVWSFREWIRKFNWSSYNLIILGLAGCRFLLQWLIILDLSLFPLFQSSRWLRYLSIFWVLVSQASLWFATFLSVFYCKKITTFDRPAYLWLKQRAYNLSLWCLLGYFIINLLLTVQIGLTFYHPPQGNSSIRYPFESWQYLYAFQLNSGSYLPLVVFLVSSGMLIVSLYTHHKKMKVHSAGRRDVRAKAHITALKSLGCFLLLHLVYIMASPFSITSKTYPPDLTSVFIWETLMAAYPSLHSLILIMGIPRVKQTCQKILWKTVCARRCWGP
Assay: hT2R panel inhibition, transient HEK293 G16g44, agonist Picoline 10 mM
Assay type: cell-based
Conditions: HEK293, compound at 25 μM; receptor activated to EC80 with the corresponding agonist; read-out: screening result against bitter receptor 5

As a guide, the following entries are already answered.
# compound, inhibition at 25 µM
rows = [
    ("Cc1ccc(CN(Cc2ccccc2)S(=O)(=O)c2ccc(C(=O)O)cc2)cc1 [Example 5-70]", "40 to 60%"),
    ("CN(Cc1ccccc1)S(=O)(=O)c1ccc(C(=O)O)cc1 [Example 5-55]", "20 to 40%"),
    ("COc1cccc(CN(Cc2ccccc2)S(=O)(=O)c2ccc(C(=O)O)cc2)c1 [Example 5-74]", "20 to 40%"),
    ("O=C(O)c1ccc(S(=O)(=O)N(Cc2ccccc2)Cc2ccc(Cl)cc2)cc1 [Example 5-77]", "20 to 40%"),
    ("COc1ccc(CN(Cc2ccccc2Cl)S(=O)(=O)c2ccc(C(=O)O)cc2)cc1 [Example 5-68]", "40 to 60%"),
    ("O=C(O)c1ccc(S(=O)(=O)N(Cc2ccccc2)Cc2cccc(F)c2)cc1 [Example 5-79]", "20 to 40%"),
]

Form field: reported inhibition at 25 µM of COc1ccc(CN(CCc2ccccc2)S(=O)(=O)c2ccc(C(=O)O)cc2)cc1 [Example 5-19]
20 to 40%

Also need COc1ccc(CN(Cc2cc(OC)cc(OC)c2)S(=O)(=O)c2ccc(C(=O)O)cc2)cc1 [Example 5-67] , thanks.
20 to 40%

----------
Biological target: hT2R71 (Homo sapiens (Human))
Test: hT2R panel inhibition, transient HEK293 G16g44, agonist Picric Acid 10 μM
Type: cell-based
Details: HEK293, compound at 25 μM; receptor activated to EC80 with the corresponding agonist; read-out: screening result against bitter receptor 71
recorded-metric: inhibition at 25 µM

Example entries begin here.
# compound, target-of-assay, test-value
records = [
    ("CCCN(Cc1ccc(OC)cc1)S(=O)(=O)c1ccc(C(=O)O)cc1", "hT2R71 (Homo sapiens (Human))", "40 to 60%"),
    ("O=C(O)c1ccc(CN(Cc2ccccc2)S(=O)(=O)c2ccc(C(=O)O)cc2)cc1", "hT2R71 (Homo sapiens (Human))", "60 to 80%"),
    ("COc1ccc(CN(Cc2ccccc2OC)S(=O)(=O)c2ccc(C(=O)O)cc2)cc1", "hT2R71 (Homo sapiens (Human))", "> 80%"),
]

Quick one: inhibition at 25 µM for Cc1ccc(S(=O)(=O)N(Cc2ccc(F)cc2)CC2CCC(C(=O)O)CC2)cc1 (stereo not drawn) ?
40 to 60%

Now try COc1ccc(CN(Cc2ccc(OC)c(F)c2)S(=O)(=O)c2ccc(C(=O)O)cc2)cc1 .
40 to 60%

Then this compound: CCc1ccc(CN(Cc2ccccc2)S(=O)(=O)c2ccc(C(=O)O)cc2)cc1
20 to 40%

Try the compound COc1ccc(CN(Cc2ccc(OC)c(OC)c2)S(=O)(=O)c2ccc(C(=O)O)cc2)cc1
40 to 60%

Input Cc1ccc(CN(Cc2ccccc2)S(=O)(=O)c2ccc(C(=O)O)cc2)cc1
40 to 60%

Next up: O=C(O)c1ccc(S(=O)(=O)N(Cc2ccccc2)Cc2cccc(Cl)c2)cc1
20 to 40%

Follow-up item: COc1ccc(CN(C(C)c2ccccc2)S(=O)(=O)c2ccc(C(=O)O)cc2)cc1 (stereo not drawn)
40 to 60%

Query COc1ccc(CN(Cc2ccccc2)C(=O)Nc2ccc(C(=O)O)cc2)cc1 next
20 to 40%

----------
Biological target: hT2R71 (Homo sapiens (Human), UniProt P59536)
Sequence (P59536 whole entry): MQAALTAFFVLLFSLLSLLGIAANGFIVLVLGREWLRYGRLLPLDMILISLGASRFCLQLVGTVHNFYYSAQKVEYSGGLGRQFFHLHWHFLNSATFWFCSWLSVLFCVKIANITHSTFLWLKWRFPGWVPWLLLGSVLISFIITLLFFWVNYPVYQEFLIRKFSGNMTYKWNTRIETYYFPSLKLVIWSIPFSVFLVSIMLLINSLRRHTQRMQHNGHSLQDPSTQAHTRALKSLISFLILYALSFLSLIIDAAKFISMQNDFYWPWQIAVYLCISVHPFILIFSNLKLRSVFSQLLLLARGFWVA
Assay: hT2R panel inhibition, transient HEK293 G16g44, agonist Picric Acid 10 μM
Type: cell-based
Conditions: HEK293, compound at 25 μM; receptor activated to EC80 with the corresponding agonist; read-out: screening result against bitter receptor 71
Description: Specifically, in order to evaluate the inhibitory selectivity of the Compound C compound, this compound was tested against 22 human T2Rs which were deorphaned by Senomyx. These receptors and the bitter ligands that activate these human T2Rs are reported in earlier patent applications which are incorporated by reference herein. These 22 human T2Rs are hT2R1, 3, 4, 5, 7, 8, 9, 10, 13, 14, 16, 44, 51, 54, 55, 61, 63, 64, 65, 67, 71 and 75. […]
recorded-metric: inhibition at 25 µM

Given O=C(O)c1ccc(CN(Cc2ccc(F)cc2)S(=O)(=O)c2ccccc2)cc1 , state its recorded inhibition at 25 µM.
60 to 80%

Entry to check: COc1ccc(CN(Cc2cccc(F)c2)S(=O)(=O)c2ccc(C(=O)O)cc2)cc1
> 80%

----------
Recorded log10 of IC50 values for a group of compounds are listed next.
Target: hT2R8 (Homo sapiens (Human), UniProt Q9NYW2)
Sequence (Q9NYW2 whole entry): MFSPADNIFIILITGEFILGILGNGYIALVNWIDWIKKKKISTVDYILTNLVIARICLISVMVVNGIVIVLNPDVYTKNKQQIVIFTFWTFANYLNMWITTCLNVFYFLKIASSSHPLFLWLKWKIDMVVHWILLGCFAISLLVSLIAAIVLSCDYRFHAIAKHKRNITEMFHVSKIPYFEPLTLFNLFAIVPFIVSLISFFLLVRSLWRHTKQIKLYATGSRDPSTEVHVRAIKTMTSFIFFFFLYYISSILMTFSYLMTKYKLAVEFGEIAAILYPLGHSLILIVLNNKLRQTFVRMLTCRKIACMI
Test: hT2R8 antagonist high-throughput FLIPR assay, stable cell line with G16g44, agonist andrographolide
Format: cell-based
Conditions: unit uM; read-out: IC50 on hT2R08 bitter receptor
// stored as log10 of IC50 expressed in µM

Below, each entry is followed by its recorded log10 of IC50 result.
# compound, log10 of IC50
data = [
    ("Cc1cccc(CN2CC(=O)N(c3cnn(Cc4c(C)noc4C)c3)C2=O)c1", -1.70),
    ("Cc1noc(C)c1Cn1cc(N2C(=O)CN(Cc3ccc4c(c3)OCO4)C2=O)cn1", -1.15),
    ("Cc1noc(C)c1Cn1cc(N2C(=O)CN(Cc3cccc(CO)c3)C2=O)cn1", -0.52),
    ("Cc1noc(C)c1Cn1cc(N2C(=O)CN(Cc3ccccc3[N+](=O)[O-])C2=O)cn1", -1.15),
    ("Cc1noc(C)c1Cn1cc(N2C(=O)CN(Cc3cccc(O)c3)C2=O)cn1", -1.46),
]

// log10 of IC50 lookup, key: Cc1noc(C)c1Cn1cc(N2C(=O)CN(Cc3cc(C)n(C)n3)C2=O)cn1
-0.52

Follow-up item: Cc1noc(C)c1Cn1cc(N2C(=O)CN(Cc3cccc(CN(C)C)c3)C2=O)cn1
0.08

Lookup CSc1ccccc1CN1CC(=O)N(c2cnn(Cc3c(C)noc3C)c2)C1=O
-1.52

FYI, the data here is from patent US9247759B2.
